Cited source: patent US10562912B2

Provide the recorded IC50 for the entries that follow.
target: STAT3 (Homo sapiens); construct: plasmid pSTAT3-TA-luc), which contains a stably operating STAT3 promoter; endogenous in cells; experiment: STAT3 reporter gene assay (luciferase), LNCaP stable cell line (pSTAT3-TA-luc), IL-6 stimulation; format: cell-based
Sequence (P40763 whole entry): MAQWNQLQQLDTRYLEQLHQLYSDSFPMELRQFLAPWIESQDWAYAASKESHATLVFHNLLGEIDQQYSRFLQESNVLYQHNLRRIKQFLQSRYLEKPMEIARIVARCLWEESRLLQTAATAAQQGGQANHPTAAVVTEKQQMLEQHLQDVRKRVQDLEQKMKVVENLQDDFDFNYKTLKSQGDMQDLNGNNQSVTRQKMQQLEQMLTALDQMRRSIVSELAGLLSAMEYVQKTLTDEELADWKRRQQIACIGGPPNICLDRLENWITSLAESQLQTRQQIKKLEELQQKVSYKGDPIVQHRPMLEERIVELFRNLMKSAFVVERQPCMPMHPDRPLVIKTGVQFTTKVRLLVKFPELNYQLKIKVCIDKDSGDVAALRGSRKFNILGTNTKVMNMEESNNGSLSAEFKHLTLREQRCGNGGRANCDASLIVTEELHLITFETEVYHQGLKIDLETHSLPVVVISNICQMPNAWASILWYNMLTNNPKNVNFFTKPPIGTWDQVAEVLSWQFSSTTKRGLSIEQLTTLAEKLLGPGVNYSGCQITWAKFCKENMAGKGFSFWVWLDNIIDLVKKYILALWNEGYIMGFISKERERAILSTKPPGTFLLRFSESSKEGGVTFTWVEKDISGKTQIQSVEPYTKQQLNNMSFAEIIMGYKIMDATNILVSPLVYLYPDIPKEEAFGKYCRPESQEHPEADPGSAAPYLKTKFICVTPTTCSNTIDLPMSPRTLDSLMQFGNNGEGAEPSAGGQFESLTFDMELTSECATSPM

{"compound": "CS(=O)(=O)Nc1ccc2cc(C(=O)Nc3cc(-c4ccc(O)nc4)cc(-c4ccc(F)cc4F)c3)[nH]c2c1", "IC50": "> 10 µM"}

For every item below, please supply its IC50.
1. CC(C)Oc1cc(OC(F)(F)F)cc(C(C)(C)c2cc(Cl)cc(NC(=O)c3cc4cc(NC(=O)OC(C)(C)C)ccc4s3)c2)c1
2. O=C(Nc1cccc(-c2ccccc2C(F)(F)F)c1)c1nc2cc([N+](=O)[O-])ccc2[nH]1

> 10 µM
> 10 µM
